molecular target: Rat liver mitochondrial MAO (MAO-B) (Rattus norvegicus, UniProt P19643); assay: MAO-B assay in vitro, benzylamine as substrate; settings: IC50 values MAO-B, isolated compounds, Table 2
Sequence (P19643 whole entry): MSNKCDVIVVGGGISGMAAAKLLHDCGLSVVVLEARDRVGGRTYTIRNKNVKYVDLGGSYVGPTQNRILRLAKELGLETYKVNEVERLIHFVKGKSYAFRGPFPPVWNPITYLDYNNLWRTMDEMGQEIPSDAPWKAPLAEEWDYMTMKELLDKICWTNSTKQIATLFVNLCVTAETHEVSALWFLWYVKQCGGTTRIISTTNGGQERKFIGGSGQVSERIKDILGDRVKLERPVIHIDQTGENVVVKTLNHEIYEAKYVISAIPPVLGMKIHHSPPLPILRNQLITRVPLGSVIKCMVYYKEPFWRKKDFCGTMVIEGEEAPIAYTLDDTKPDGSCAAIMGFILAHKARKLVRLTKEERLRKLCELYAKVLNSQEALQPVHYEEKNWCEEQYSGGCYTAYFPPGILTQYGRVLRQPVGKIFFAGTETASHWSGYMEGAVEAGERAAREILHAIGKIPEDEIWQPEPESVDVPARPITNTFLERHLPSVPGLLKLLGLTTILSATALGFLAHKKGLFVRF
Quantity Measured: pIC50
Remember, pIC50 is on a log scale: it is -log10 of the molar concentration.

Look up pIC50 with Rat liver mitochondrial MAO (MAO-B) (Rattus norvegicus, UniProt P19643) for this compound: CC(C)=CCC/C(C)=C/Cc1c(O)ccc(C(=O)/C=C/c2ccc(O)cc2)c1O 4.36

* * *

molecular target: dopamine β-hydroxylase (DBH) (Homo sapiens, UniProt P09172)
Sequence (P09172 whole entry, species assumed): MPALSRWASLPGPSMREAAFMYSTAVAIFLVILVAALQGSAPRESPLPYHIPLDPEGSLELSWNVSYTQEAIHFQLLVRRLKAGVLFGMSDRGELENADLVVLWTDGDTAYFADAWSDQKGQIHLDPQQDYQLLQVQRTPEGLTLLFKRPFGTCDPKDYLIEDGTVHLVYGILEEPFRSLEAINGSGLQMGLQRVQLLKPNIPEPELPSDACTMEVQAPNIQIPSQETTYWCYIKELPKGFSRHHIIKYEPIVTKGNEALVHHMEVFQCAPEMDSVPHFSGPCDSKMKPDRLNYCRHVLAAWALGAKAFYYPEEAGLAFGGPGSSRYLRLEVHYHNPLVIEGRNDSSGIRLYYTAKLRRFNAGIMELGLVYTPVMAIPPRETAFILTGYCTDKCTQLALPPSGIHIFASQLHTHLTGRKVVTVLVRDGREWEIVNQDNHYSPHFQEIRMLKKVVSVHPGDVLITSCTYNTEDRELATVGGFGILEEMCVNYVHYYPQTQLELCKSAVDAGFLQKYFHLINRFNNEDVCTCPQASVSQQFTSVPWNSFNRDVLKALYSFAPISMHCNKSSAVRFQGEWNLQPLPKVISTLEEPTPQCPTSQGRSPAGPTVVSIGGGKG
Quantity Measured: IC50
A bare number is not enough; add the unit after it.

Look up IC50 with dopamine β-hydroxylase (DBH) (Homo sapiens, UniProt P09172) for this compound: CC(C)=CCC/C(C)=C/Cc1c(O)ccc(C(=O)/C=C/c2ccc(O)cc2)c1O 516 µM
